system: EMC-BAC-2; experiment: relative viability (nuclei count vs DMSO), 5 days (fraction); higher = more cells survive; conditions: first compound 0.1 µM
Reported relative viability values for the following compounds.
Answer with a number only.

# example entries with known answers
O=c1cc(N2CCOCC2)oc2c(-c3cccc4c3sc3ccccc34)cccc12 + CC1(C)CCC(c2ccc(Cl)cc2)=C(CN2CCN(c3ccc(C(=O)NS(=O)(=O)c4ccc(N[C@H](CCN5CCOCC5)CSc5ccccc5)c(S(=O)(=O)C(F)(F)F)c4)cc3)CC2)C1 [Navitoclax] (partner 0.5 µM) : 1.18
O=c1cc(N2CCOCC2)oc2c(-c3cccc4c3sc3ccccc34)cccc12 + Cc1nc(Nc2ncc(C(=O)Nc3c(C)cccc3Cl)s2)cc(N2CCN(CCO)CC2)n1 [Dasatinib] (partner 0.075 µM) : 0.342
CCN(CC)CCCCNc1ncc2cc(-c3cc(OC)cc(OC)c3)c(NC(=O)NC(C)(C)C)nc2n1 + CC1(C)CCC(c2ccc(Cl)cc2)=C(CN2CCN(c3ccc(C(=O)NS(=O)(=O)c4ccc(N[C@H](CCN5CCOCC5)CSc5ccccc5)c(S(=O)(=O)C(F)(F)F)c4)cc3)CC2)C1 [Navitoclax] (partner 0.5 µM) : 1.24

// switching to the query compound
Hi! What's the reported relative viability for O=c1cc(N2CCOCC2)oc2c(-c3cccc4c3sc3ccccc34)cccc12 + CCNC(=O)c1noc(-c2cc(C(C)C)c(O)cc2O)c1-c1ccc(CN2CCOCC2)cc1 [Luminespib] (partner 0.01 µM) on EMC-BAC-2?
1.14

###

Reported relative viability values for the following molecules.
tested on: NCI-H838; assay: relative viability (nuclei count vs DMSO), 5 days (fraction); higher = more cells survive; conditions: first compound 2.53 µM
Answer with a number only.

COc1nc(C)cnc1NS(=O)(=O)c1cccnc1-c1ccc(-c2nnco2)cc1 [Zibotentan] + Nc1nc2[nH]cc(CCc3ccc(C(=O)N[C@@H](CCC(=O)O)C(=O)O)cc3)c2c(=O)[nH]1 [Pemetrexed] (partner 0.2 µM) : 0.252
O=c1cc(-c2cccc3c2Sc2ccccc2S3)oc(N2CCOCC2)c1 + COc1cc2c(Oc3ccc(NC(=O)C4(C(=O)Nc5ccc(F)cc5)CC4)cc3F)ccnc2cc1OCCCN1CCOCC1 [Foretinib] (partner 0.25 µM) : 0.878
O=c1cc(-c2cccc3c2Sc2ccccc2S3)oc(N2CCOCC2)c1 + C[C@@H](Oc1cc(-c2cnn(C3CCNCC3)c2)cnc1N)c1c(Cl)ccc(F)c1Cl [Crizotinib] (partner 1 µM) : 0.794
O=c1cc(-c2cccc3c2Sc2ccccc2S3)oc(N2CCOCC2)c1 + CS(=O)(=O)N1CCN(Cc2cc3nc(-c4cccc5[nH]ncc45)nc(N4CCOCC4)c3s2)CC1 [Pictilisib] (partner 1 µM) : 0.426
O=c1cc(-c2cccc3c2Sc2ccccc2S3)oc(N2CCOCC2)c1 + Cc1nc(NC(=O)N2CCC[C@H]2C(N)=O)sc1-c1ccnc(C(C)(C)C(F)(F)F)c1 [Alpelisib] (partner 2 µM) : 0.903
COc1nc(C)cnc1NS(=O)(=O)c1cccnc1-c1ccc(-c2nnco2)cc1 [Zibotentan] + Cc1nc(Nc2ncc(C(=O)Nc3c(C)cccc3Cl)s2)cc(N2CCN(CCO)CC2)n1 [Dasatinib] (partner 0.075 µM) : 0.305

Quick one: relative viability of O=c1cc(-c2cccc3c2Sc2ccccc2S3)oc(N2CCOCC2)c1 + CC(=O)Nc1cccc(-n2c(=O)n(C3CC3)c(=O)c3c(Nc4ccc(I)cc4F)n(C)c(=O)c(C)c32)c1 [Trametinib] (partner 0.02 µM) ?
0.502

###

system: NCI-H1355; test: relative viability (nuclei count vs DMSO), 5 days (fraction); higher = more cells survive; conditions: first compound 2.53 µM
Reported relative viability values for the following compounds.
Answer with a number only.

COc1nc(C)cnc1NS(=O)(=O)c1cccnc1-c1ccc(-c2nnco2)cc1 [Zibotentan] + N=C(N)NC(=N)NCCc1ccccc1 [Phenformin] (partner 250 µM) : 0.491
COc1nc(C)cnc1NS(=O)(=O)c1cccnc1-c1ccc(-c2nnco2)cc1 [Zibotentan] + COc1cc2c(Oc3ccc(NC(=O)C4(C(=O)Nc5ccc(F)cc5)CC4)cc3F)ccnc2cc1OCCCN1CCOCC1 [Foretinib] (partner 0.25 µM) : 0.927
O=c1cc(-c2cccc3c2Sc2ccccc2S3)oc(N2CCOCC2)c1 + CC1(C)CCC(c2ccc(Cl)cc2)=C(CN2CCN(c3ccc(C(=O)NS(=O)(=O)c4ccc(N[C@H](CCN5CCOCC5)CSc5ccccc5)c(S(=O)(=O)C(F)(F)F)c4)cc3)CC2)C1 [Navitoclax] (partner 0.5 µM) : 0.942

// switching to the query compound
Quick one: relative viability of O=c1cc(-c2cccc3c2Sc2ccccc2S3)oc(N2CCOCC2)c1 + O=C(c1cc(Cc2n[nH]c(=O)c3ccccc23)ccc1F)N1CCN(C(=O)C2CC2)CC1 [Olaparib] (partner 8 µM) ?
0.717

###

Reported relative viability values for the following compounds.
test system: NCI-H520; experiment: relative viability (nuclei count vs DMSO), 5 days (fraction); higher = more cells survive; settings: first compound 0.253 µM
Answer with a number only.

# example entries with known answers
O=c1cc(-c2cccc3c2Sc2ccccc2S3)oc(N2CCOCC2)c1 + C[C@@H](Oc1cc(-c2cnn(C3CCNCC3)c2)cnc1N)c1c(Cl)ccc(F)c1Cl [Crizotinib] (partner 1 µM) : 0.695
O=c1cc(-c2cccc3c2Sc2ccccc2S3)oc(N2CCOCC2)c1 + Cc1cc(Nc2cc(N3CCN(C)CC3)nc(Sc3ccc(NC(=O)C4CC4)cc3)n2)n[nH]1 [Tozasertib] (partner 0.1 µM) : 0.375
O=c1cc(-c2cccc3c2Sc2ccccc2S3)oc(N2CCOCC2)c1 + C[C@]1(O)C[C@@H](c2nc(-c3ccc4ccc(-c5ccccc5)nc4c3)c3c(N)nccn32)C1 [Linsitinib] (partner 1 µM) : 1.06
O=c1cc(-c2cccc3c2Sc2ccccc2S3)oc(N2CCOCC2)c1 + O=C(CCCCCCC(=O)Nc1ccccc1)NO [Vorinostat] (partner 1 µM) : 0.856
O=c1cc(-c2cccc3c2Sc2ccccc2S3)oc(N2CCOCC2)c1 + CS(=O)(=O)CCNCc1ccc(-c2ccc3ncnc(Nc4ccc(OCc5cccc(F)c5)c(Cl)c4)c3c2)o1 [Lapatinib] (partner 2 µM) : 1.13

Quick one: relative viability of O=c1cc(-c2cccc3c2Sc2ccccc2S3)oc(N2CCOCC2)c1 + O=C(c1cc(Cc2n[nH]c(=O)c3ccccc23)ccc1F)N1CCN(C(=O)C2CC2)CC1 [Olaparib] (partner 8 µM) ?
0.321

Quick one: relative viability of COc1nc(C)cnc1NS(=O)(=O)c1cccnc1-c1ccc(-c2nnco2)cc1 [Zibotentan] + CC(=O)Nc1cccc(-n2c(=O)n(C3CC3)c(=O)c3c(Nc4ccc(I)cc4F)n(C)c(=O)c(C)c32)c1 [Trametinib] (partner 0.02 µM) ?
0.704

Quick one: relative viability of COc1nc(C)cnc1NS(=O)(=O)c1cccnc1-c1ccc(-c2nnco2)cc1 [Zibotentan] + Nc1nc2[nH]cc(CCc3ccc(C(=O)N[C@@H](CCC(=O)O)C(=O)O)cc3)c2c(=O)[nH]1 [Pemetrexed] (partner 0.2 µM) ?
0.665

###

system: A-427; assay: relative viability (nuclei count vs DMSO), 5 days (fraction); higher = more cells survive; conditions: first compound 0.1 µM
Reported relative viability values for the following molecules.
Answer with a number only.

# example entries with known answers
CCN(CC)CCCCNc1ncc2cc(-c3cc(OC)cc(OC)c3)c(NC(=O)NC(C)(C)C)nc2n1 + Nc1ncn([C@H]2C[C@H](O)[C@@H](CO)O2)c(=O)n1 [Decitabine] (partner 2 µM) : 0.518
O=c1cc(N2CCOCC2)oc2c(-c3cccc4c3sc3ccccc34)cccc12 + CS(=O)(=O)N1CCN(Cc2cc3nc(-c4cccc5[nH]ncc45)nc(N4CCOCC4)c3s2)CC1 [Pictilisib] (partner 1 µM) : 0.68
O=c1cc(N2CCOCC2)oc2c(-c3cccc4c3sc3ccccc34)cccc12 + Nc1ncn([C@H]2C[C@H](O)[C@@H](CO)O2)c(=O)n1 [Decitabine] (partner 2 µM) : 0.58
O=c1cc(N2CCOCC2)oc2c(-c3cccc4c3sc3ccccc34)cccc12 + CC(=O)c1c(C)c2cnc(Nc3ccc(N4CCNCC4)cn3)nc2n(C2CCCC2)c1=O [Palbociclib] (partner 0.5 µM) : 0.528

// switching to the query molecule
Quick one: relative viability of O=c1cc(N2CCOCC2)oc2c(-c3cccc4c3sc3ccccc34)cccc12 + N=C(N)NC(=N)NCCc1ccccc1 [Phenformin] (partner 250 µM) ?
0.315

###

tested on: LOU-NH91; test: relative viability (nuclei count vs DMSO), 5 days (fraction); higher = more cells survive; conditions: first compound 0.6325 µM
property: relative viability
Answer with a number only.

# example entries with known answers
COCC1(CO)C(=O)C2CCN1CC2 (centres undefined) [PRIMA-1MET] + CCNC(=O)c1noc(-c2cc(C(C)C)c(O)cc2O)c1-c1ccc(CN2CCOCC2)cc1 [Luminespib] (partner 0.01 µM) : 0.353
COCC1(CO)C(=O)C2CCN1CC2 (centres undefined) [PRIMA-1MET] + Nc1nc2[nH]cc(CCc3ccc(C(=O)N[C@@H](CCC(=O)O)C(=O)O)cc3)c2c(=O)[nH]1 [Pemetrexed] (partner 0.2 µM) : 0.367

Quick one: relative viability of COCC1(CO)C(=O)C2CCN1CC2 (centres undefined) [PRIMA-1MET] + COc1cc2c(Oc3ccc(NC(=O)C4(C(=O)Nc5ccc(F)cc5)CC4)cc3F)ccnc2cc1OCCCN1CCOCC1 [Foretinib] (partner 0.25 µM) ?
0.992

Quick one: relative viability of COCC1(CO)C(=O)C2CCN1CC2 (centres undefined) [PRIMA-1MET] + CC(C)C[C@H](NC(=O)[C@H](Cc1ccccc1)NC(=O)c1cnccn1)B(O)O [Bortezomib] (partner 0.002 µM) ?
0.403

All figures here come from the supplement of paper PMC10307832.
